assay_details: Induction of hemolysis in rabbit RBC at 64 ug/ml incubated for 1 hr
Assay type: toxicity, cell-based, Oryctolagus cuniculus, Erythrocyte
experimental_conditions: red blood cells, dose 64 µg/ml, read-out: Activity
value_type: hemolysis at 1 h, 64 ug/ml (%)
State the answer as a number, implicitly in %.

// hemolysis at 1 h, 64 ug/ml value for `C[C@@H](c1cn(-c2ccc(Cl)cc2F)nn1)[C@](O)(Cn1cncn1)c1ccc(F)cc1F` : 0.3

---

assay_details: Induction of hemolysis in rabbit RBC at 16 ug/ml incubated for 1 hr
Type: toxicity, cell-based, Oryctolagus cuniculus, Erythrocyte
experimental_conditions: red blood cells, at 16 µg/mL, read-out: Activity
value_type: hemolysis at 1 h, 16 ug/ml

Record summary for `C[C@@H]1[C@H](O)[C@@H](C)/C=C/C=C/C=C/C=C/C=C/C=C/C=C/[C@H](O[C@@H]2O[C@H](C)[C@@H](O)[C@H](N)[C@@H]2O)C[C@@H]2O[C@](O)(C[C@@H](O)C[C@@H](O)[C@H](O)CC[C@@H](O)C[C@@H](O)CC(=O)O[C@H]1C)C[C@H](O)[C@H]2C(=O)O` : reported hemolysis at 1 h, 16 ug/ml = 24.7%

---

assay_details: in vitro
experimental_conditions: human, Caco-2 cells; at 64 µg/mL
value_type: viability at 24 h, 64 ug/ml (%)
Your answer is read as %, so omit the unit and give the number.

Field: example entries. Status: answers known.
CC[C@@H]([C@H](C)O)n1ncn(-c2ccc(N3CCN(c4ccc(OC[C@@H]5CO[C@@](Cn6cncn6)(c6ccc(F)cc6F)C5)cc4)CC3)cc2)c1=O 68.3
C[C@@H](c1ncncc1F)[C@](O)(Cn1cncn1)c1ccc(F)cc1F 103
OC(Cn1cncn1)(Cn1cncn1)c1ccc(F)cc1F 101

Now for another entry.
Item: `C[C@@H]1[C@H](O)[C@@H](C)/C=C/C=C/C=C/C=C/C=C/C=C/C=C/[C@H](O[C@@H]2O[C@H](C)[C@@H](O)[C@H](N)[C@@H]2O)C[C@@H]2O[C@](O)(C[C@@H](O)C[C@@H](O)[C@H](O)CC[C@@H](O)C[C@@H](O)CC(=O)O[C@H]1C)C[C@H](O)[C@H]2C(=O)O` | viability at 24 h, 64 ug/ml: 63.3

---

AUC(0-inf) values for the compounds below.
assay_details: AUC(0 to infinity) in Sprague-Dawley rat at 5 mg/kg, po by LC-MS analysis
Assay type: ADME, organism-based
Parameters: time infinity, dose 5 mg/kg, route po
experimental_conditions: in vivo
A number alone suffices; assume ng·h/mL.

C[C@@H](c1cn(-c2ccc(Cl)cc2F)nn1)[C@](O)(Cn1cncn1)c1ccc(F)cc1F 3860

Let us examine a further case.
Entry `C[C@@H](c1ncncc1F)[C@](O)(Cn1cncn1)c1ccc(F)cc1F` — recorded AUC(0-inf) = 2530

---

assay_details: Induction of hemolysis in rabbit RBC at 32 ug/ml incubated for 1 hr
Assay type: toxicity, cell-based, Oryctolagus cuniculus, Erythrocyte
experimental_conditions: red blood cells, at 32 µg/mL, read-out: Activity
value_type: hemolysis at 1 h, 32 ug/ml (%)
Write it as a number; the unit % goes unstated.

`C[C@@H]1[C@H](O)[C@@H](C)/C=C/C=C/C=C/C=C/C=C/C=C/C=C/[C@H](O[C@@H]2O[C@H](C)[C@@H](O)[C@H](N)[C@@H]2O)C[C@@H]2O[C@](O)(C[C@@H](O)C[C@@H](O)[C@H](O)CC[C@@H](O)C[C@@H](O)CC(=O)O[C@H]1C)C[C@H](O)[C@H]2C(=O)O` yielded hemolysis at 1 h, 32 ug/ml of 65.2
